Molecular target: MMP-13 (Homo sapiens, UniProt P45452)
Construct: catalytic domain (^104Tyr˜^267Gly) was amplified with RT-PCR; His-tag; enterokinase digestion-site
Assay: Assay for inhibitory activities on MMPs (fluorogenic peptide substrate), MMP-13
Listing of recorded pIC50 by entry.
Lab note — pIC50 values are minus log10 of concentrations in M.

Below are worked cases with known answers.
molecule: COc1ccc2cc(C#Cc3ccc(-c4ccc(S(=O)(=O)NC(Cc5ccc(F)cc5)C(=O)O)cc4)cc3)ccc2c1 (stereo not shown) [III-47]
pIC50: 6.84
--
molecule: COc1ccc2cc(C#Cc3ccc(-c4ccc(S(=O)(=O)N[C@H](CC(C)C)C(=O)O)cc4)cc3)ccc2c1 [III-22]
pIC50: 7.25
--
molecule: C[C@@H](NS(=O)(=O)c1ccc(-c2ccc(NC(=O)c3ccc(OC(F)(F)F)cc3)cc2)cc1)C(=O)O [VI-21]
pIC50: 7.43

# input molecule: CC(C)C[C@@H](NS(=O)(=O)c1ccc(-c2ccc(C#Cc3ccc4ccccc4c3)cc2)cc1)C(=O)O [III-6] ; wanted: its pIC50
7.82

# input molecule: CC(C)C[C@@H](NS(=O)(=O)c1ccc(-c2ccc(NC(=O)c3ccc4ccccc4c3)cc2)cc1)C(=O)O [VI-41] ; wanted: its pIC50
6.75

# input molecule: COCc1cccc(C#Cc2ccc(-c3ccc(S(=O)(=O)N[C@@H](C)C(=O)O)cc3)cc2)c1 [III-62] ; wanted: its pIC50
7.72

# input molecule: COc1ccc2cc(C#Cc3ccc(-c4ccc(S(=O)(=O)N[C@H](CCSC)C(=O)O)cc4)cc3)ccc2c1 [III-24] ; wanted: its pIC50
8.20

----------
Protein target, amino acids: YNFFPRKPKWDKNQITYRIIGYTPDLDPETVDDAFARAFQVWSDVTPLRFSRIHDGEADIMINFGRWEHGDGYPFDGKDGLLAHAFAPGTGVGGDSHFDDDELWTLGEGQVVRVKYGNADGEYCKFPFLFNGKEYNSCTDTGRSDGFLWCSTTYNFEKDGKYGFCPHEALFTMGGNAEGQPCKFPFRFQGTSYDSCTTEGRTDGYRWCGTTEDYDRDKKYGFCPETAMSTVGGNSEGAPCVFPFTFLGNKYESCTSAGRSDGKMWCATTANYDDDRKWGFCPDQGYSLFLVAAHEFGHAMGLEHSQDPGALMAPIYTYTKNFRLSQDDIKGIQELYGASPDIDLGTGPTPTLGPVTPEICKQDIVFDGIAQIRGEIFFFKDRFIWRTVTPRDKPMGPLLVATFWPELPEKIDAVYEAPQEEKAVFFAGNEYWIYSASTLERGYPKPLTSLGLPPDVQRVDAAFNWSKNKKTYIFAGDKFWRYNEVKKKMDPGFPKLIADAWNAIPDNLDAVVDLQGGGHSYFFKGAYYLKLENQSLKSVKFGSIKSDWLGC
experimental_endpoint: pIC50
Lab note — pIC50 values are minus log10 of concentrations in M.

Below are worked cases with known answers.
compound_structure: CC(C)(C)[C@H](NS(=O)(=O)c1ccc(-c2ccc(OCc3ccc4ccccc4c3)cc2)cc1)C(=O)O
experimental_endpoint: pIC50
result_number: 7.04
--
compound_structure: CC(C)[C@@H](NS(=O)(=O)c1ccc(-c2ccc(C#Cc3ccc4ccccc4c3)cc2)cc1)C(=O)O
experimental_endpoint: pIC50
result_number: 7.14

# input compound: `COc1ccc2cc(C#Cc3ccc(-c4ccc(S(=O)(=O)N[C@H](CCSC)C(=O)O)cc4)cc3)ccc2c1` ; wanted: its pIC50
6.62

# input compound: `O=C(Nc1ccc(-c2ccc(S(=O)(=O)N[C@H](Cc3ccccc3)C(=O)O)cc2)cc1)c1cccs1` ; wanted: its pIC50
6.81

----------
Target: MMP-9 (Homo sapiens)
Sequence (P14780 107-707): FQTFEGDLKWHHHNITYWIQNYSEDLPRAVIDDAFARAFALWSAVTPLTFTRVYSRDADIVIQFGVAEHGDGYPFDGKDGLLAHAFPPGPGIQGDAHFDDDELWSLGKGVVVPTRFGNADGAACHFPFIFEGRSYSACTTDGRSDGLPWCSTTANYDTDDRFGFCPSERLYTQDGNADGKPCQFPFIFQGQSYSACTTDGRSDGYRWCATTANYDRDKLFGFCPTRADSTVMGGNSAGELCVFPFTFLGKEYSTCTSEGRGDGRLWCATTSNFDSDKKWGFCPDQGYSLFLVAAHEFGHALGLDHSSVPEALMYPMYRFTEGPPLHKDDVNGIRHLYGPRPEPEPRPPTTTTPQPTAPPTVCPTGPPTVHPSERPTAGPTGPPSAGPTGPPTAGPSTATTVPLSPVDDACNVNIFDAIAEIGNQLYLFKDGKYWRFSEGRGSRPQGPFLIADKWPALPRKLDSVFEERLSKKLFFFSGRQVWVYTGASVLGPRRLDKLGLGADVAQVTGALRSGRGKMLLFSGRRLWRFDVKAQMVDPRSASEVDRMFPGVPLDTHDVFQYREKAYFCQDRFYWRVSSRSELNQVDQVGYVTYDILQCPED
experimental_endpoint: IC50

compound: COc1ccc2cc(C#Cc3ccc(-c4ccc(S(=O)(=O)N[C@H](CO)C(=O)O)cc4)cc3)ccc2c1
IC50: > 10 µM

Tell me reported IC50 for `COc1ccc2cc(C#Cc3ccc(-c4ccc(S(=O)(=O)N[C@@H](CO)C(=O)O)cc4)cc3)ccc2c1` , tested with MMP-9 (Homo sapiens).
> 10 µM

Tell me reported IC50 for `CC(C)[C@@H](NS(=O)(=O)c1ccc(-c2ccc(COc3ccc4ccccc4c3)cc2)cc1)C(=O)O` , tested with MMP-9 (Homo sapiens).
> 10 µM

Tell me reported IC50 for `O=C(Nc1ccc(-c2ccc(S(=O)(=O)N[C@H](Cc3ccccc3)C(=O)O)cc2)cc1)c1ccccc1` , tested with MMP-9 (Homo sapiens).
> 10 µM

Tell me reported IC50 for `C[C@H](NS(=O)(=O)c1ccc(-c2ccc(C#Cc3ccc4ccccc4c3)cc2)cc1)C(=O)O` , tested with MMP-9 (Homo sapiens).
> 10 µM

Tell me reported IC50 for `O=C(Nc1ccc(-c2ccc(S(=O)(=O)N[C@H](Cc3ccccc3)C(=O)O)cc2)cc1)c1ccc(F)cc1` , tested with MMP-9 (Homo sapiens).
> 10 µM

Tell me reported IC50 for `COc1ccc(C(=O)Nc2ccc(-c3ccc(S(=O)(=O)N[C@H](C)C(=O)O)cc3)cc2)cc1OC` , tested with MMP-9 (Homo sapiens).
> 10 µM

Tell me reported IC50 for `COc1ccc2cc(C#Cc3ccc(-c4ccc(S(=O)(=O)N[C@@H](C(=O)O)c5ccc(O)cc5)cc4)cc3)ccc2c1` , tested with MMP-9 (Homo sapiens).
> 10 µM

Tell me reported IC50 for `COc1ccc(C(=O)Nc2ccc(-c3ccc(S(=O)(=O)N[C@H](Cc4ccccc4)C(=O)O)cc3)cc2)cc1OC` , tested with MMP-9 (Homo sapiens).
> 10 µM

Tell me reported IC50 for CCC(C)[C@H](NS(=O)(=O)c1ccc(-c2ccc(C#Cc3ccc4cc(OC)ccc4c3)cc2)cc1)C(=O)O (stereo partly drawn) , tested with MMP-9 (Homo sapiens).
> 10 µM

Tell me reported IC50 for COc1ccc2cc(C#Cc3ccc(-c4ccc(S(=O)(=O)NC(Cc5ccc(F)cc5)C(=O)O)cc4)cc3)ccc2c1 (stereo not drawn) , tested with MMP-9 (Homo sapiens).
> 10 µM

Tell me reported IC50 for `COc1ccc(C(=O)Nc2ccc(-c3ccc(S(=O)(=O)N[C@H](Cc4ccccc4)C(=O)O)cc3)cc2)cc1` , tested with MMP-9 (Homo sapiens).
> 10 µM

----------
Molecular target: MMP-13 (Homo sapiens)
Construct: catalytic domain (^104Tyr˜^267Gly) was amplified with RT-PCR; His-tag; enterokinase digestion-site
Experiment: Assay for inhibitory activities on MMPs (fluorogenic peptide substrate), MMP-13
experimental_endpoint: IC50 (nM)
Respond numerically; units are nM and should not be typed.

Below are worked cases with known answers.
molecule: CC(C)[C@@H](NS(=O)(=O)c1ccc(-c2ccc(NC(=O)c3ccc4ccccc4c3)cc2)cc1)C(=O)O [VI-39]
system: MMP-13 (Homo sapiens)
IC50 [nM]: 81.1

molecule: C[C@H](NS(=O)(=O)c1ccc(-c2ccc(C#Cc3cccc(C(=O)O)c3)cc2)cc1)C(=O)O [III-61]
system: MMP-13 (Homo sapiens)
IC50 [nM]: 6.17

molecule: COc1ccc2cc(C#Cc3ccc(-c4ccc(S(=O)(=O)N[C@H](CCC(=O)O)C(=O)O)cc4)cc3)ccc2c1 [III-27]
system: MMP-13 (Homo sapiens)
IC50 [nM]: 2.71

molecule: COc1ccc(C[C@H](NS(=O)(=O)c2ccc(-c3ccc(C#Cc4ccc5cc(OC)ccc5c4)cc3)cc2)C(=O)O)cc1 [III-48]
system: MMP-13 (Homo sapiens)
IC50 [nM]: 100

molecule: COCc1cccc(C#Cc2ccc(-c3ccc(S(=O)(=O)N[C@@H](CC(C)C)C(=O)O)cc3)cc2)c1 [III-64]
system: MMP-13 (Homo sapiens)
IC50 [nM]: 21.1

# input molecule: CSCC[C@H](NS(=O)(=O)c1ccc(-c2ccc(OCc3ccc4ccccc4c3)cc2)cc1)C(=O)O [VII-9] ; wanted: its IC50
26.5

# input molecule: CC(C)(C)[C@H](NS(=O)(=O)c1ccc(-c2ccc(OCc3ccc4ccccc4c3)cc2)cc1)C(=O)O [VII-8] ; wanted: its IC50
7.93

# input molecule: COc1ccc2cc(C#Cc3ccc(-c4ccc(S(=O)(=O)N[C@H](C)C(=O)O)cc4)cc3)ccc2c1 [III-17] ; wanted: its IC50
5.6

# input molecule: O=C(O)[C@H](CO)NS(=O)(=O)c1ccc(-c2ccc(C#Cc3ccc4sccc4c3)cc2)cc1 [III-55] ; wanted: its IC50
10.9

# input molecule: O=C(O)[C@@H](CC1CCCCC1)NS(=O)(=O)c1ccc(-c2ccc(C#Cc3ccc4ccccc4c3)cc2)cc1 [III-15] ; wanted: its IC50
225

# input molecule: COc1ccc2cc(C#Cc3ccc(-c4ccc(S(=O)(=O)N[C@@H](C)C(=O)O)cc4)cc3)ccc2c1 [III-18] ; wanted: its IC50
19.9

----------
Listing of recorded pIC50 by entry.
Biological target: MMP-8 (Homo sapiens, UniProt P22894)
Construct: In regard to MMP-8, catalytic domain (^99Phe˜^262Gly) was amplified with PCR; His-tag; enterokinase digestion-site
Sequence (P22894 99-262): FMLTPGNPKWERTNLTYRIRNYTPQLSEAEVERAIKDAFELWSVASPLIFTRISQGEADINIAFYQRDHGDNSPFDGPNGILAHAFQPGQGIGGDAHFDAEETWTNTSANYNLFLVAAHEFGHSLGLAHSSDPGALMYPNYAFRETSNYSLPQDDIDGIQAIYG
Test: Assay for inhibitory activities on MMPs (fluorogenic peptide substrate), MMP-8
Lab note — pIC50 values are minus log10 of concentrations in M.

Below are worked cases with known answers.
compound_structure: COc1ccc2cc(C#Cc3ccc(-c4ccc(S(=O)(=O)N[C@@H](C(=O)O)c5ccc(O)cc5)cc4)cc3)ccc2c1
pIC50: 6.29
//
compound_structure: CC(C)(C)[C@H](NS(=O)(=O)c1ccc(-c2ccc(NC(=O)c3cc4ccccc4s3)cc2)cc1)C(=O)O
pIC50: 6.80

Tell me reported pIC50 for `CSCC[C@H](NS(=O)(=O)c1ccc(-c2ccc(C#Cc3ccc4ccccc4c3)cc2)cc1)C(=O)O` , tested with MMP-8 (Homo sapiens, UniProt P22894).
7.59

Tell me reported pIC50 for `COc1ccc2cc(C#Cc3ccc(-c4ccc(S(=O)(=O)N[C@@H](CCSC)C(=O)O)cc4)cc3)ccc2c1` , tested with MMP-8 (Homo sapiens, UniProt P22894).
7.05
